# procedure.summary: NCI Yeast Anticancer Drug Screen. Data for the mec2-1 strain (AID 157)
# conditions.used: S. cerevisiae mec2-1 strain, hits give high values; at 50.0 µM unless noted
About 79,000 compounds went through this panel and 15% of them were active in at least one assay; those are over-represented in the sample as a whole. Activity calls are given as the source filed them. No stated cut-off is given here; in the data, active means growth inhibition above about 70%; inactive means the rest.
Known growth inhibition of a selection of compounds
property: growth inhibition

>>> recorded_measurement("COc1ccc(/C=C/C(=O)O)c(OC)c1")
"30.9% (inactive)"
>>> recorded_measurement("O=[N+]([O-])c1ccc(-n2nnc(C3=NCCCN3)c2-c2ccc(Cl)cc2)cc1")
"-8.1% (inactive)"
>>> recorded_measurement("Cc1c2c(c(O)c3sccc13)C(C)(C)OC2=O")
"-1.8% (inactive)"
>>> recorded_measurement("CCCCCCC(CCN(C)C)(C(C)=O)c1ccccc1 (centres undefined)")
"3.7% (inactive)"
>>> recorded_measurement("O=C(O)c1cc([N+](=O)[O-])cc([N+](=O)[O-])c1-c1ccccc1")
"-2.6% (inactive)"
>>> recorded_measurement("CC1=C(C#N)C(=C(C#N)C#N)OC1(C)Cc1ccccc1 (centres undefined)")
"6.35% (inactive)"
>>> recorded_measurement("Clc1ccc(Oc2ncnc3nc[nH]c23)cc1")
"5.75% (inactive)"
>>> recorded_measurement("CCCCCCCCCCCCCCCCCC(O)CCCCCCCCCCCCCCCCC")
"-8.45% (inactive)"
>>> recorded_measurement("O=CNNc1nn2cnnc2c2ccccc12")
"9.95% (inactive)"
>>> recorded_measurement("CC1=Nc2ccc([N+](=O)[O-])cc2C1(C)C")
"5.1% (inactive)"
>>> recorded_measurement("CCS(=O)(=O)C(CCCl)S(=O)(=O)CC")
"0.9% (inactive)"
>>> recorded_measurement("C=CCn1c(=O)c2ccccc2[n+]2c(C)c(C(=O)OCC)sc12")
"-16.2% (inactive)"
>>> recorded_measurement("O=C(O)CCc1cnc[nH]1")
"-1.8% (inactive)"
>>> recorded_measurement("NC(COC(=O)NCCCl)C(=O)O (centres undefined)")
"-6.95% (inactive)"

###

Known growth inhibition of a selection of molecules
# procedure.summary: NCI Yeast Anticancer Drug Screen. Data for the bub3 strain (AID 167)
# conditions.used: S. cerevisiae bub3 mutant strain, hits give high values; at 50.0 µM unless noted
The panel holds about 79,000 compounds, 15% with a hit somewhere; the sample as a whole holds those more often.
property: growth inhibition (%)

>>> recorded_measurement("NC(=O)Nc1nc2ccccc2[nH]1")
-7.7
>>> recorded_measurement("CC(C)C(=O)Nc1nc2nc[nH]c2c(=O)[nH]1")
-7.95
>>> recorded_measurement("O=C(OC(C1COCO1)C(O)C1COCO1)c1ccccc1 (stereo unspecified)")
28.4
>>> recorded_measurement("CC(O)CNC1=CC(=O)C(=O)c2ccccc21 (stereo unspecified)")
20.4
>>> recorded_measurement("NC(=S)Cc1ccncc1")
5.55
>>> recorded_measurement("CCCCCCCCCCCCSCCSCCCCCCCCCCCC")
-29.4
>>> recorded_measurement("CC(=O)OC1c2ccccc2CCCCCCC12OCCO2 (stereo unspecified)")
-36.3
>>> recorded_measurement("CCCCCCCCCCCCCCCCCCCCCCCCC(=O)O")
-33.5
>>> recorded_measurement("O=c1[nH]c(=O)c2nc(-c3cccnc3)cnc2[nH]1")
0.85
>>> recorded_measurement("CN(C)C(=S)Oc1c([N+](=O)[O-])cc([N+](=O)[O-])cc1C(C)(C)C")
92.6
>>> recorded_measurement("O=C(O)c1cc([N+](=O)[O-])cc([N+](=O)[O-])c1-c1ccccc1")
44.6
>>> recorded_measurement("CCCCCCCCCCC1CC(=O)OC1=O (stereo unspecified)")
9.25
>>> recorded_measurement("CN(C=O)c1c(F)cc(N=Nc2ccccc2)cc1F")
2.25
>>> recorded_measurement("Clc1nc(NCCc2ccccc2)c2ncn(-c3ccccc3)c2n1")
68.2
>>> recorded_measurement("O=C(O)c1ccccc1SCCO")
-22.4
>>> recorded_measurement("c1cncc(C2N3CCCCC3[C@@H]3c4[nH]c5ccccc5c4CCN23)c1 (stereo partly specified)")
-15.1

###

# procedure.summary: NCI Yeast Anticancer Drug Screen. Data for the cln2 rad14 strain (AID 165);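 further: 0% = growth equal to vehicle treated cultures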
# conditions.used: S. cerevisiae cln2 rad14 strain; at 50.0 µM unless noted
This is part of a sample that, as a whole, favours compounds with a hit. Of some 79,000 tested, about 15% had one in any assay. Activity calls are given as the source filed them. No stated cut-off is given here; in the data, active means growth inhibition above about 70%; inactive means the rest.
Outcome codes: 1.0 (active), 0.0 (inactive)

>>> assigned_label("CC(C)(C)C(=O)CC(=O)C(F)(F)C(F)(F)C(F)(F)F.CC(C)(C)C(=O)CC(=O)C(F)(F)C(F)(F)C(F)(F)F.CC(C)(C)C(=O)CC(=O)C(F)(F)C(F)(F)C(F)(F)F.[La]")
0.0
>>> assigned_label("O=c1[nH][nH]c(=O)c2c([N+](=O)[O-])cccc12")
0.0
>>> assigned_label("CC1CC(=O)Nc2nc3ccccc3n21 (stereo unspecified)")
0.0
>>> assigned_label("O=C1OC(Oc2ccccc2)c2cc3c(cc21)OCO3 (stereo unspecified)")
0.0
>>> assigned_label("CCCCCCCCCCCC[N+](C)(C)C(C)Cc1ccccc1 (stereo unspecified)")
1.0
>>> assigned_label("O=C(OCC1OCOC2C(COC(=O)c3ccccc3)OCOC12)c1ccccc1 (stereo unspecified)")
0.0
>>> assigned_label("Nc1ccc(S(=O)(=O)Nc2cc(C(F)(F)F)cc(C(F)(F)F)c2)cc1")
0.0
>>> assigned_label("Cc1ccc(C(N)=O)cc1N=NN(C)C")
0.0
>>> assigned_label("Cc1ccc(S(=O)(=O)/C=C(/SC#N)C2CCCCC2)cc1")
0.0
>>> assigned_label("Cc1cccc(-c2cc3ccccc3c(Cl)n2)n1")
0.0
>>> assigned_label("CCc1ccc2c(c1)CCCC2(C)C")
0.0
>>> assigned_label("Cc1nc(Nc2nc3ccccc3[nH]2)[nH]c(=O)c1CCO")
0.0
>>> assigned_label("COc1cc2cnc3c4cc(OCc5ccccc5)ccc4ccc3c2cc1OC")
0.0
>>> assigned_label("COC1=CC2CC(C#N)C2(OC)C=C1 (stereo unspecified)")
0.0
>>> assigned_label("CCOC(=O)c1cc(/C=C/C(C)=C/C(=O)OC)n(C)c1C")
0.0
>>> assigned_label("CCNc1ncnc2c1nnn2CC")
0.0

###

# procedure.summary: NCI Yeast Anticancer Drug Screen. Data for the cln2 rad14 strain (AID 165);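 further: 0% = growth equal to vehicle treated cultures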
# conditions.used: S. cerevisiae cln2 rad14 strain, hits give high values; at 50.0 µM unless noted
Compounds without any hit were thinned out: in the full panel of roughly 79,000, 15% have a hit.
Consider the reported growth inhibition of an entry and match it to a band in low (below -20%), intermediate (-20% to below 10%), high (10% or more)

>>> assigned_label("NC(=O)C1OCOC2C(CO)OCOC12 (stereo unspecified)")
"low"
>>> assigned_label("Nc1nc2c(c(=O)[nH]1)N(C=O)C(CCNc1ccc(C(=O)NC(CCC(=O)O)C(=O)O)cc1)CN2 (stereo unspecified)")
"intermediate"
>>> assigned_label("CCc1cccc(CC)c1NC(=S)N/C=C(\\C#N)S(=O)(=O)c1ccc(C)cc1")
"intermediate"
>>> assigned_label("Cc1ncc(CO)c(CO)c1OCC(O)CN1CCN(c2ccc(F)cc2)CC1 (stereo unspecified)")
"low"
>>> assigned_label("CC1CC(C)OC(c2ccc(Cl)cc2)O1 (stereo unspecified)")
"low"
>>> assigned_label("CCOC(=O)N/N=C/c1ccccc1C")
"high"
>>> assigned_label("Cc1cc(Nc2nnc(-c3cccnc3Oc3ccccc3)s2)ccc1Br")
"high"
>>> assigned_label("COc1ccc(-c2cc(=O)c3c(O)c(OC)c(O)cc3o2)cc1O")
"high"
>>> assigned_label("CCCCCC(=O)OC(c1ccc(Cl)cc1)c1ccc(Cl)cc1")
"high"
>>> assigned_label("O=C(Nc1ccccc1Cl)c1cc2cc(N=Nc3ccc(Br)cc3)ccc2oc1=O")
"intermediate"
>>> assigned_label("O=C(CNc1nncs1)NO")
"intermediate"
>>> assigned_label("CC1(CCC(=O)O)C(=O)C(=O)CC2C1CCC1(C)C(O)CCC21 (stereo unspecified)")
"intermediate"
>>> assigned_label("COc1ccc(C(=O)/C=C/c2ccc(OCC#N)cc2)cc1OC")
"low"
>>> assigned_label("Cc1ccc(S(=O)(=O)N(C)c2ccc3c(c2)C(=O)c2ccccc2-3)cc1")
"low"
>>> assigned_label("O=C(Cc1nc2ccccc2o1)C(=O)Nc1ccccc1C(F)(F)F")
"intermediate"
>>> assigned_label("Cc1c(Cl)cccc1NC(=O)CCl")
"intermediate"
>>> assigned_label("CC(=O)CC/C=C(\\C)CC(C)C")
"high"
>>> assigned_label("C=C(C)[C@H]1C=C[C@@H](OC(=O)c2cccnc2)[C@@]23CO[C@@](C)([C@H](OC(=O)c4cccnc4)[C@@]4(OC(C)=O)C[C@H](C)[C@H](OCCC)[C@@H]4[C@H]2OC(C)=O)[C@H]13")
"high"
>>> assigned_label("O=C1N=CN=C2C=CC(Cl)=C(I)C12 (stereo unspecified)")
"intermediate"
>>> assigned_label("CC(=O)Oc1ccc(CCC(=O)O)cc1")
"high"
